Sourced from PubChem BioAssay AID1963422

viability, T/C reference
Test system: 463943-066-T-J2-PDC complex spheroid growth;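 also: compound exposure lasted 7 days; 100% = DMSO vehicle control wells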
assay.text: Anticancer human tumor 463943-066-T-J2-PDC patient-derived colon adenocarcinoma cell line growth inhibition [Asc]
settings: second compound 0.1 µM; first compound 10 µM; stronger effect = lower value
From the text: Multicellular complex tumor spheroid response to apoptosis pathway targeting inhibitors Alrizomadlin, Pelcitoclax, and Dasminapant in combination with a variety of drugs and investigational agents in selected tumor cell lines […] Compounds. […] If the clinical Cmax for an agent had not been determined, the highest concentration tested was 10 microM. […]

{"compound": "C#Cc1c(F)ccc2cc(O)cc(-c3ncc4c(N5CC6CCC(C5)N6)nc(OCC56CCCN5CC(F)C6)nc4c3F)c12 (stereo unspecified) + Cc1c(S(C)(=O)=O)c(-c2cc(F)cc(N3CCN(c4ccc(NS(=O)(=O)c5ccc(NC(CCN6CCC(C(=O)OCCCP(=O)(O)O)CC6)CSc6ccccc6)c(S(=O)(=O)C(F)(F)F)c5)cc4)CC3)c2)c(-c2ccc(Cl)cc2)n1C(C)C", "viability, T/C / %": 82.1}
{"compound": "C#Cc1c(F)ccc2cc(O)cc(-c3ncc4c(N5CC6CCC(C5)N6)nc(OCC56CCCN5CC(F)C6)nc4c3F)c12 (stereo unspecified) + CNC(C)C(=O)NC1CN(S(=O)(=O)c2cccc(S(=O)(=O)N3CCC4CCC(C(=O)NC(c5ccccc5)c5ccccc5)N4C(=O)C(NC(=O)C(C)NC)C3)c2)CCC2CCC(C(=O)NC(c3ccccc3)c3ccccc3)N2C1=O", "viability, T/C / %": 85.7}
{"compound": "O=C(c1cc(Cc2n[nH]c(=O)c3ccccc23)ccc1F)N1CCN(C(=O)C2CC2)CC1 + CNC(C)C(=O)NC1CN(S(=O)(=O)c2cccc(S(=O)(=O)N3CCC4CCC(C(=O)NC(c5ccccc5)c5ccccc5)N4C(=O)C(NC(=O)C(C)NC)C3)c2)CCC2CCC(C(=O)NC(c3ccccc3)c3ccccc3)N2C1=O", "viability, T/C / %": 86.2}
{"compound": "C=C(F)C(=O)N1CCN(c2nc(OCC3CCCN3C)nc3c2CCN(c2cccc4cccc(Cl)c24)C3)CC1CC#N (stereo unspecified) + Cc1c(S(C)(=O)=O)c(-c2cc(F)cc(N3CCN(c4ccc(NS(=O)(=O)c5ccc(NC(CCN6CCC(C(=O)OCCCP(=O)(O)O)CC6)CSc6ccccc6)c(S(=O)(=O)C(F)(F)F)c5)cc4)CC3)c2)c(-c2ccc(Cl)cc2)n1C(C)C", "viability, T/C / %": 1.47}
{"compound": "C=CC(=O)N1CCN(c2nc(=O)n(-c3c(C)ccnc3C(C)C)c3nc(-c4c(O)cccc4F)c(F)cc23)C(C)C1 (stereo unspecified) + Cc1c(S(C)(=O)=O)c(-c2cc(F)cc(N3CCN(c4ccc(NS(=O)(=O)c5ccc(NC(CCN6CCC(C(=O)OCCCP(=O)(O)O)CC6)CSc6ccccc6)c(S(=O)(=O)C(F)(F)F)c5)cc4)CC3)c2)c(-c2ccc(Cl)cc2)n1C(C)C", "viability, T/C / %": 84.4}
{"compound": "O=C(c1cc(Cc2n[nH]c(=O)c3ccccc23)ccc1F)N1CCN(C(=O)C2CC2)CC1 + Cc1c(S(C)(=O)=O)c(-c2cc(F)cc(N3CCN(c4ccc(NS(=O)(=O)c5ccc(NC(CCN6CCC(C(=O)OCCCP(=O)(O)O)CC6)CSc6ccccc6)c(S(=O)(=O)C(F)(F)F)c5)cc4)CC3)c2)c(-c2ccc(Cl)cc2)n1C(C)C", "viability, T/C / %": 81.7}
